pIC50: −log10 of the molar value.
Below are pIC50 values for Protein kinase C epsilon type (Homo sapiens, UniProt Q02156) collected from several publications.

COc1ccc(Nc2ncc(C#N)c(NC3CC(C)(C)N(C)C(C)(C)C3)n2)cc1OC(F)F | 7.05
Cc1cnc(N)c(C(=O)Nc2cc(C(=O)c3ccccc3)ccc2N2CCNCC2)n1 | < 4.60
Nc1nccnc1C(=O)Nc1cnccc1N1CCCNCC1 | 5.00 to 6.00
CC1(C)CC(Nc2nc(Nc3ccc4c(c3)-n3nnnc3C(C)(C)O4)ncc2F)CC(C)(C)N1 | > 6.60
Cc1ccc(N2CCNCC2)c(NC(=O)c2nccnc2N)c1 | 5.00 to 6.00

# value lookup — system Protein kinase C epsilon type (Homo sapiens, UniProt Q02156), readout pIC50, item `COc1ccc(N2CCC(N)CC2)c(NC(=O)c2nc(-c3ccccc3)cnc2N)c1`
> 6.00

# value lookup — system Protein kinase C epsilon type (Homo sapiens, UniProt Q02156), readout pIC50, item `CCOc1ccc(Nc2ncc(C#N)c(NC3CC(C)(C)N(C)C(C)(C)C3)n2)cc1-n1nnnc1CC`
7.22

# value lookup — system Protein kinase C epsilon type (Homo sapiens, UniProt Q02156), readout pIC50, item `COc1ccc(Nc2ncc(Cl)c(NC3CC(C)(C)N(C)C(C)(C)C3)n2)cc1OC(F)F`
7.27
